target: Methyl-CpG-binding domain protein 4 (Homo sapiens) (UniProt O95243); settings: Compound Concentration 10.0 uM, Hit No;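 also: MBD4 activity read as fluorescence at 594 nm from cleavage and release of a quenched duplex DNA oligonucleotide, with APE1 coupled to incise the strand and raise turnover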
Sequence (O95243 whole entry, the tested form may be a part): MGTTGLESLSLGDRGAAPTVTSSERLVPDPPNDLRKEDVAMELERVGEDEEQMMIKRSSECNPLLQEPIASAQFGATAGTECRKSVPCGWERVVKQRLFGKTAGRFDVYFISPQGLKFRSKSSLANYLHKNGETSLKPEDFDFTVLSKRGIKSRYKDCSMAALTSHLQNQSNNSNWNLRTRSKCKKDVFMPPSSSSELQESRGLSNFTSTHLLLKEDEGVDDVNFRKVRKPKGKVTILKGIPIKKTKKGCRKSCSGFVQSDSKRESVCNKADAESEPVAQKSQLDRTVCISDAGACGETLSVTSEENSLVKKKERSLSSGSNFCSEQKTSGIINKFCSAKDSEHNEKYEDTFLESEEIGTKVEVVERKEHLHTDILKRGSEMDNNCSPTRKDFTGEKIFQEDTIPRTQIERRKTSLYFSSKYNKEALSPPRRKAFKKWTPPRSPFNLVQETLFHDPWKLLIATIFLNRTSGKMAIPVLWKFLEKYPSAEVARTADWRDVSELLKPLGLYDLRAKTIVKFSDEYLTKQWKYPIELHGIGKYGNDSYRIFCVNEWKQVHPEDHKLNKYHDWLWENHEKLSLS
Description: Inhibition of MBD4 by quantifying inhibition of MBD4-mediated cleavage and dissociation of quenched duplex DNA oligonucleotides, measured as fluorescence at 594 nm. To generate a functional strand incision and increase turn-over this assay is coupled to APE1.
recordedEndpoint: inhibition (%)
Write down the numeric answer in % and omit the unit.

Please indicate inhibition recorded for "COc1cc([N+](=O)[O-])ccc1NC(=O)c1ccccc1O"
0.275

Please indicate inhibition recorded for "O=C(COc1cccc2ccccc12)Nc1cc(Cl)ccc1C(=O)O"
33.2

Please indicate inhibition recorded for "COc1cc(Nc2ccc([N+](=O)[O-])cc2C(=O)O)cc2ccccc12"
71

Please indicate inhibition recorded for "Clc1ccccc1C(c1ccccc1)(c1ccccc1)n1cccn1"
5.21

Please indicate inhibition recorded for "CC1=C(C#N)C(c2ccc3c(c2)c(NC(=O)c2ccccc2C)nn3C)C(C#N)=C(C)N1"
65.1

Please indicate inhibition recorded for "Cc1c(N2CCNCC2)nc2ccc(Br)cc2c1C(=O)NC[C@H](CCC(=O)O)c1ccccc1Cl"
54.3

Please indicate inhibition recorded for "Cc1nc(NC(=O)N2CCC[C@H]2C(N)=O)sc1-c1ccnc(C(C)(C)C(F)(F)F)c1"
-5.03

Please indicate inhibition recorded for Cc1ccccc1C(=O)Nc1ccc(C(=O)N2CCCC(N(C)C)c3ccccc32)cc1 (stereo not given)
19.4

Please indicate inhibition recorded for "Cn1c(=O)n(CCCO)c(=O)c2c1nc(Oc1cccc(OC(F)(F)F)c1)n2Cc1ccc(Cl)cc1"
26.6

Please indicate inhibition recorded for "Cc1ccccc1C#Cc1ccc(CCC(=O)O)cc1"
11.2

* * *

Provide the recorded inhibition for the entries that follow.
Target: Adenine DNA glycosylase (Homo sapiens);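 also: human MUTYH activity read as 594 nm fluorescence from cleavage and release of a quenched DNA duplex, coupled with APE1 for strand incision, lower signal meaning inhibition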
Sequence (whole entry): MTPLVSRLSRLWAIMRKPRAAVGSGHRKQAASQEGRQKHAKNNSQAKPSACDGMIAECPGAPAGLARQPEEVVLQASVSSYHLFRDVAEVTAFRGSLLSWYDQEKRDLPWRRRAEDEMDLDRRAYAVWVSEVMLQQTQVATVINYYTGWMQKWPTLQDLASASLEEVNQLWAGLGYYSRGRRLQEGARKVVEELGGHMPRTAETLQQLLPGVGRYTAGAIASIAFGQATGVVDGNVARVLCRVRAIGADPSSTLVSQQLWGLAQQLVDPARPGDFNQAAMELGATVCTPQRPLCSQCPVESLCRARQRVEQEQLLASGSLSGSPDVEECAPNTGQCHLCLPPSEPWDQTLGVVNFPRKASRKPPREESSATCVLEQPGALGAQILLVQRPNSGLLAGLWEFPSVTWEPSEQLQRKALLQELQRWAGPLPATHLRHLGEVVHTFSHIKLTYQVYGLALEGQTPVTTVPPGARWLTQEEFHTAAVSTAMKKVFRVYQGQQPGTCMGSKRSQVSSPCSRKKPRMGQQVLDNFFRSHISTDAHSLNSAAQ
Details: Compound Concentration 10.0 uM, Hit No
Description: Inhibition of MUTYH by quantifying inhibition of MUTYH-mediated cleavage and dissociation of quenched duplex DNA oligonucleotides, measured as fluorescence at 594 nm. To generate a functional strand incision and increase turn-over this assay is coupled to APE1.
Write down the numeric answer in % and omit the unit.

Please indicate inhibition recorded for "COC(c1ccccc1)(c1ccccc1)[C@H](Oc1nc(C)cc(C)n1)C(=O)O"
23.3

Please indicate inhibition recorded for CCC(C)N(C)C(=O)c1cc2ccccc2c(-c2ccccc2Cl)n1 (stereo not given)
1.15

Please indicate inhibition recorded for "NC(=O)c1ccc(CNC(=O)NC[C@H]2CN(Cc3ccc(Cl)c(Cl)c3)CCO2)cc1"
5.52

Please indicate inhibition recorded for "O=C(NS(=O)(=O)N1CCC1)c1cc(C2CC2)c(OCC23CC4CC(CC(C4)C2)C3)cc1F"
93

Please indicate inhibition recorded for COc1cc(N)c(Cl)cc1C(=O)NC1CN2CCC1CC2 (stereo not given)
0.595

Please indicate inhibition recorded for CCOC(=O)c1ccc(N2C(=O)C(O)=C(C(=O)c3ccc(OC)cc3)C2c2ccc(F)cc2)cc1 (stereo not given)
62.9

Please indicate inhibition recorded for CN1C2CCCC1CC(Nc1ccccc1Br)C2 (stereo not given)
6.82

Please indicate inhibition recorded for "CC1(C)C(=O)C(C)(C)c2cc(C(=O)Nc3ccc(C(=O)O)cc3)ccc21"
-4.47

Please indicate inhibition recorded for "CCCCC(=O)N(Cc1ccc(-c2ccccc2C(=O)O)cc1)c1ccccc1"
18

Please indicate inhibition recorded for "CCCn1c(=O)c2[nH]c(-c3ccc(OCC(=O)Nc4ccc(C#N)cc4)cc3)nc2n(CCC)c1=O"
-3.95
